target: T1, c-erbB-2 ECD with a Ser-Gly-His6 C-terminal fusion (UniProt P04626 23-652); experiment: SPR BIAcore
T1 construct: extracellular domain; Expressed from CHO cells, IMAC purified; coupled to a CM5 chip, coated on plates, or biotinylated with NHS-LC-biotin; also called c-erbB-2 extracellular domain; biotinylated c-erbB-2 ECD
QUANTITY_NAME: Kd (nM)
Form entry: value (nM) — number only.

>>> measured_number("C6-B47D1 (scFv, Combined B47 and D1 mutations on C6ML3-9) scFv: QVQLLQSGAELKKPGESLKISCKGSGYSFTSYWIAWVRQMPGKGLEYMGLIYPGDSDTKYSPSFQGQVTISVDKSVSTAYLQWSSLKPSDSAVYFCARHDVGYCTDRSCAKWPEWLHVWGQGTLVTVSSGGGGSGGGGSGGGGSQSVLTQPPSVSAAPGQKVTISCSGSSSNIGNNYVSWYQQLPGTAPKLLIYGHTNRPAGVPDRFSGSKSGTSASLAISGFRSEDEADYYCASWDYTLSGWVFGGGTKLTVLG")
0.068
>>> measured_number("C6-B47D2 (scFv, Combined B47 and D2 mutations on C6ML3-9) scFv: QVQLLQSGAELKKPGESLKISCKGSGYSFTSYWIAWVRQMPGKGLEYMGLIYPGDSDTKYSPSFQGQVTISVDKSVSTAYLQWSSLKPSDSAVYFCARHDVGYCTDRSCAKWPEWLGVWGQGTLVTVSSGGGGSGGGGSGGGGSQSVLTQPPSVSAAPGQKVTISCSGSSSNIGNNYVSWYQQLPGTAPKLLIYGHTNRPAGVPDRFSGSKSGTSASLAISGFRSEDEADYYCASWDYTLSGWVFGGGTKLTVLG")
0.044

# query: Kd of entry C6-B1D6 (scFv, Combined B1 and D6 mutations on C6ML3-9) scFv: QVQLLQSGAELKKPGESLKISCKGSGYSFTSYWIAWVRQMPGKGLEYMGLIYPGDSDTKYSPSFQGQVTISVDKSVSTAYLQWSSLKPSDSAVYFCARHDVGYCTDRTCAKWPEWMYPWGQGTLVTVSSGGGGSGGGGSGGGGSQSVLTQPPSVSAAPGQKVTISCSGSSSNIGNNYVSWYQQLPGTAPKLLIYGHTNRPAGVPDRFSGSKSGTSASLAISGFRSEDEADYYCASWDYTLSGWVFGGGTKLTVLG 0.032
